molecular target: Dopamine beta-hydroxylase (Bos taurus) (UniProt P15101); assay: Kis value for the affinity towards homogenous bovine dopamine beta-hydroxylase (DBH)
Sequence (P15101 whole entry): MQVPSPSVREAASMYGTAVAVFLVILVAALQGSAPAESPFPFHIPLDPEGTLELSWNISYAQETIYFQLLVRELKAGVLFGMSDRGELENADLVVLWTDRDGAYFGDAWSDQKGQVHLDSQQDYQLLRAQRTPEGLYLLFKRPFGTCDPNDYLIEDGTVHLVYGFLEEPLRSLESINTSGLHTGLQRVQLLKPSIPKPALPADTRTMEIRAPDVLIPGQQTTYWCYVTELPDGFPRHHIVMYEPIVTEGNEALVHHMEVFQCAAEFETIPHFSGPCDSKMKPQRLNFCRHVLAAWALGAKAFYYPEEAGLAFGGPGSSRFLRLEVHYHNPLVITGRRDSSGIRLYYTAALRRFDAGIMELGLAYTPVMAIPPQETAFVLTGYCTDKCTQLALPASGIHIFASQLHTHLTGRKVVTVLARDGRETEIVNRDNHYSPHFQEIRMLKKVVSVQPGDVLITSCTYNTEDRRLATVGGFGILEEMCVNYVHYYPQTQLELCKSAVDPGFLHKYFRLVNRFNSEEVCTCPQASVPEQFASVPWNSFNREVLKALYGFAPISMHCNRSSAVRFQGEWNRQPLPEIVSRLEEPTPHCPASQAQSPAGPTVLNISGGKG
Quick reference: Kis of the listed items.
Measure name: Kis (µM)

INSERT INTO results (compound, tested_system, observed_measurement) VALUES
  ('C=CC(CN)c1ccc(O)cc1 (stereo not drawn)', 'Dopamine beta-hydroxylase (Bos taurus) (UniProt P15101)', 82),
  ('C#CC(CN)c1ccc(O)cc1 (stereo in doubt; (+)3)', 'Dopamine beta-hydroxylase (Bos taurus) (UniProt P15101)', 7.9),
  ('C=CC(CN)c1ccccc1 (stereo not drawn)', 'Dopamine beta-hydroxylase (Bos taurus) (UniProt P15101)', 670),
  ('C#CC(CN)c1cccc(O)c1 (stereo not drawn)', 'Dopamine beta-hydroxylase (Bos taurus) (UniProt P15101)', 190),
  ('C=CC(CN)c1cccc(O)c1 (stereo not drawn)', 'Dopamine beta-hydroxylase (Bos taurus) (UniProt P15101)', 1270),
  ('C#CC(CN)c1ccc(O)cc1 (single isomer, unassigned; (-))', 'Dopamine beta-hydroxylase (Bos taurus) (UniProt P15101)', 33.9),
  ('C#CC(CN)c1ccccc1 (stereo not drawn)', 'Dopamine beta-hydroxylase (Bos taurus) (UniProt P15101)', 160),
  ('C#CC(CN)c1ccc(O)cc1 (stereo in doubt; (+\-)3)', 'Dopamine beta-hydroxylase (Bos taurus) (UniProt P15101)', 13.6);

# credit: ChEMBL document CHEMBL1124234
